# test target: DYRK1A (Rattus norvegicus, UniProt Q63470)
# protocol notes: DYRK1A kinase inhibition assay
# Format: biochemical
# experimental setup: mean of triplicates, variation max 20%; ATP 15 µM, 30 °C
# Method: Values were background subtracted, and activities were calculated as pmoles of phosphate incorporated during a 10 min incubation. […] Controls were performed with appropriate dilutions of DMSO. DYRK1A (rat, recombinant, expressed in E. coli as a GST fusion protein) was purified by affinity chromatography on glutathione-agarose and assayed as described.
quantity kind: IC50

COc1cc2c3c(c1OC)-c1ccccc1CC3NCC2 (single isomer, unassigned; (+)) [Compound 15, (+)-N-nornuciferine] :: 4.2 µM
O=C1c2ccccc2-c2c3c(cc4ccnc1c24)OCO3 :: 3.1 µM
COc1cc2c(cc1O)CC1c3c(cc(O)c(OC)c3-2)CCN1C (single isomer, unassigned; (+)) [Compound 16, (+)-boldine] :: > 30 µM
CN1CCc2cc3c(c4c2C1Cc1ccccc1-4)OCO3 (single isomer, unassigned; (-)) [Compound 7, (−)-roemerine] :: 15 µM
COc1cc2ccnc3c2c(c1OC)-c1ccccc1C3=O :: 2.4 µM
COc1c2c3c(c(OC)c1OC)-c1ccccc1CC3NCC2 (single isomer, unassigned; (-)) [Compound 14, (−)-O-methylisopiline] :: > 30 µM

// IC50 lookup, compound = COc1ccc2c(c1O)-c1c(OC)c(O)cc3c1C(C2)N(C)CC3 (single isomer, unassigned; (+)) [Compound 10, (+)-N-methyllindcarpine] , result: > 30 µM

// IC50 lookup, compound = COc1cc2c(cc1O)CC1NCCc3cc4c(c-2c31)OCO4 (single isomer, unassigned; (+)) [Compound 11, (+)-actinodaphnine] , result: > 30 µM

// IC50 lookup, compound = COc1cc2c3c(cc4c(O)cccc4c3c1OC)NC2=O [Compound 3, velutinam] , result: 0.6 µM

// IC50 lookup, compound = COc1cc([C@H]2OC[C@@H]3C(c4cc(OC)c(O)c(OC)c4)OC[C@H]23)ccc1O (single isomer, unassigned; (-)) [Compound 5, (−)-medioresinol] , result: 0.1 µM

* * *

# test target: CDK1/Cyclin B
# protocol notes: CDK1/Cyclin B kinase inhibition assay
# Format: biochemical, starfish (Marthasterias glacialis)
# Experimental: Values were background subtracted, and activities were calculated as pmoles of phosphate incorporated during a 10 min incubation. […] Controls were performed with appropriate dilutions of DMSO. CDK1/Cyclin B was extracted in homogenisation buffer from M phase starfish (Marthasterias glacialis) oocytes and purified by affinity chromatography on p9^CKShs1-Sepharose beads, from which it was eluted with free p9^CKShs1 as previously described. […]
quantity kind: IC50

Form field IC50 for item COc1c2c(cc3c1-c1c4c(cc5c1C(C3)NCC5)OCO4)OCO2 (single isomer, unassigned; (+)) [Compound 12, (+)-11-methoxynorneolistine] on CDK1/Cyclin B: > 30 µM
